- tested on: JAK2-JH1JH2 (Homo sapiens (Human))
- Sequence (O60674 532-1132): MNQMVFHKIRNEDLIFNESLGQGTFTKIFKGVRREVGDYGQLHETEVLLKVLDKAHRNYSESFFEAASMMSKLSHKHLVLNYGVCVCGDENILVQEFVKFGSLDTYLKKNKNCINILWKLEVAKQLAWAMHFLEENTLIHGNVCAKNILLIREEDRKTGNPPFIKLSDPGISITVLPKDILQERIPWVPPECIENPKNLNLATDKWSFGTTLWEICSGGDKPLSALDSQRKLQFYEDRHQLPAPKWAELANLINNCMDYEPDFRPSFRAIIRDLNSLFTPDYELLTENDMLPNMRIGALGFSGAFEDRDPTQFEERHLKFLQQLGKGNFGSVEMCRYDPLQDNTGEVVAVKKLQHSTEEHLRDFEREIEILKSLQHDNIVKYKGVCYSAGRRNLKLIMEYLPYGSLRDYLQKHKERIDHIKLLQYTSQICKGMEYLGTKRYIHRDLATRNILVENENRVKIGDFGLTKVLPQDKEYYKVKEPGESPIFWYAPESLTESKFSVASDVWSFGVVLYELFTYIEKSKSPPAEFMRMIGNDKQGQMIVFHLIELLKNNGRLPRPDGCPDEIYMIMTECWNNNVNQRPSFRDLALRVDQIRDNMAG
pIC50: −log10 of the molar value.
# label = class 1 if pIC50 >= 8 else class 0

Quick check: does `N#CC[C@H]1CC[C@H](n2c(-c3cc[nH]n3)nc3cnc4[nH]ccc4c32)CC1` have pIC50 greater than or equal to 8? class 1

Further, for `C[S@@](=O)(=NCc1nc2cnc3[nH]ccc3c2n1[C@H]1CC[C@H](CC#N)CC1)c1ccccc1` ? class 0

Further, for `N#CC[C@H]1CC[C@H](n2c(C(=O)N3CCOCC3)nc3cnc4[nH]ccc4c32)CC1` ? class 0

Further, for `CC(C)(C#N)CNC(=O)Cc1nc2cnc3[nH]ccc3c2n1[C@H]1CC[C@H](CC#N)CC1` ? class 1

Further, for `N#CC[C@H]1CC[C@H](n2c(CNC(=O)CC3CC3)nc3cnc4[nH]ccc4c32)CC1` ? class 0

Further, for `N#CC[C@H]1CC[C@H](n2c(CC(=O)Nc3ccc(C#N)cc3)nc3cnc4[nH]ccc4c32)CC1` ? class 1

Further, for `N#CC[C@H]1CC[C@H](n2c(CC(=O)N[C@H]3C[C@H](O)C3)nc3cnc4[nH]ccc4c32)CC1` ? class 1

Further, for `CC(C)(C)CNC(=O)Cc1nc2cnc3[nH]ccc3c2n1[C@H]1CC[C@H](CC#N)CC1` ? class 1

Further, for `N#CC[C@H]1CC[C@H](n2c(CO/N=C(\N)c3ccccc3)nc3cnc4[nH]ccc4c32)CC1` ? class 1

Further, for `CC(C)(O)Cn1cc(-c2nc3cnc4[nH]ccc4c3n2[C@H]2CC[C@H](CC#N)CC2)cn1` ? class 0

Further, for `CC(C)(O)CN1CCC(c2nc3cnc4[nH]ccc4c3n2[C@H]2CC[C@H](CC#N)CC2)CC1` ? class 0

Further, for `N#CC[C@H]1CC[C@H](n2c(CNS(=O)(=O)c3ccc(C#N)cc3)nc3cnc4[nH]ccc4c32)CC1` ? class 0

Further, for `CN1CCC(NC(=O)c2nc3cnc4[nH]ccc4c3n2[C@H]2CC[C@H](CC#N)CC2)CC1` ? class 0

Further, for `Cc1c[nH]c2ncc3nc(CC(=O)NCC(C)(C)O)n([C@H]4CC[C@H](CC#N)CC4)c3c12` ? class 0
